# Test system: Trypanosoma brucei rhodesiense
# PROCEDURE SUMMARY: Antiprotozoal activity against patient derived Trypanosoma brucei rhodesiense STIB 900 bloodstream form after 72 hrs by Alamar Blue assay
# Format: functional
# MEASUREMENT CONTEXT: STIB 900, 72 h
pIC50: −log10 of the molar value.
Cut-off 5 on pIC50, inclusive. At or above means 1; below means -1.

Task: pIC50 >= 5 for `COc1cc2c(c(O)c1-c1c(C)cc(OC)c3c(OC)cccc13)C(C)=N[C@H](C)C2` ?
Result: -1

Task: pIC50 >= 5 for `COc1ccc(-c2ccc(O)c3c2C[C@@H](C)N[C@H]3C)c2cc(C)cc(OC)c12` ?
Result: 1

Task: pIC50 >= 5 for `COc1cc2c(c(OC)c1-c1c(C)cc(OC)c3c(OC)cccc13)[C@@H](C)N[C@@H](C)C2` ?
Result: 1

Task: pIC50 >= 5 for `COc1cccc2c(-c3ccc(O)c4c3C[C@@H](C)N[C@H]4C)c(C)cc(OC)c12` ?
Result: 1
